Molecular target: T1, SYNJ2BP, P57105
T1 sequence (P57105 8-110, limits assumed, looked up): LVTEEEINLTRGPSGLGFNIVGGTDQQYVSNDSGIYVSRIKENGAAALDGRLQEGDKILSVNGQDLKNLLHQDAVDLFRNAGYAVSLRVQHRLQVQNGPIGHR
Experiment: holdup assay
Parameters: key: below the threshold = too weak to quantify, mostly under pKd 3.1 to 4
Conditions: plain residues with an end cap or a label only (N-terminal biotin on a linker: ado-ado)
Each entry falls into one class according to its pKd; the ranges are class 1 (below 4), class 2 (4 to below 5), class 3 (5 or more)

// bin(item) where item = PYSESDDDWC [CACNA1A, O00555]
class 1

// bin(item) where item = VLYPREGTEV [FOXI1, Q12951]
class 3

// bin(item) where item = SVTSERETNI [SLC16A7, O60669]
class 1

// bin(item) where item = STKRKLASAV [NCF1, P14598]
class 2

// bin(item) where item = KPGKGSETVV [FZD4, Q9ULV1]
class 2

// bin(item) where item = DPAESMESLV [PTPRG, P23470]
class 2

// bin(item) where item = VKRNSKETVV [MARCHF3, Q86UD3]
class 2

// bin(item) where item = NVYGIESVKI [GRIA2, P42262]
class 1

// bin(item) where item = TGLWKHETTV [ADGRA3, Q8IWK6]
class 3

// bin(item) where item = QLSFNTDTLC [ABCA2, Q9BZC7]
class 1
